# Tested on: MDA-N
# Assay text: NCI tumour cell line growth inhibition, 48 h
In this section we review reported TGI values for a set of molecules.
Measured metric: TGI

In [3]: df
Out[3]:
                                    molecule  measured_metric     result
 0    CN(C)/N=N/c1nc2c(c(=O)n(C)c(=O)n2C)n1C              TGI   > 100 µM
 1  C=C1CC(COc2cc(=O)oc3ccccc23)(c2ccccc2)OC1=O (configuration not stated)              TGI    5.57 µM
 2  Cc1nc(-c2ccc([N+](=O)[O-])cc2)cn2c1nc1ccccc12              TGI   > 100 µM
 3  C[C@]12CC[C@@H]3c4ccc(O)cc4CC[C@H]3[C@@H]1C/C(=C\c1ccncc1)C2=O              TGI   > 100 µM
 4  Cc1ccc(-c2c(C#N)c(-c3ccccc3)n(NS(=O)(=O)c3ccccc3)c(=O)c2C#N)cc1              TGI   > 100 µM
 5               OCCCCCNc1c2ccccc2nc2ccccc12              TGI    7.42 µM
 6  CC(C)c1ccc2[nH]c(O)c(-c3[nH]c4ccccc4c3N=O)c2c1              TGI    19.2 µM
 7  OCC1CCCCCCCCCCC12SCCCS2 (configuration not stated)              TGI   > 100 µM
 8  Cc1nc2c(sc(=S)n2-c2ccccc2)c2nc3ncccc3n12              TGI   > 100 µM
 9  COc1ccc(N2C(=O)C3c4[nH]c5ccc(OCc6ccccc6)cc5c4C4CCC(C(C)(C)C)CC4C3C2=O)cc1 (configuration not stated)              TGI   > 100 µM
10  COC(=O)C1(C(=O)OC)CC2=C(S(=O)(=O)c3ccccc3)C[C@H](S(=O)(=O)c3ccccc3)[C@H]2C1              TGI   > 100 µM
11  O=C(Nc1ccc(Br)cc1)c1c(-c2ccccc2)c2ccc(O)cc2oc1=O              TGI    > 10 µM
12  COc1cc(-c2cc(=O)c3cc4c(cc3[nH]2)OCO4)cc(OC)c1O              TGI    > 10 µM
13  CCN(CC)CCc1c2c(nc3ccccc13)C(=O)c1cccnc1C2=O              TGI    4.54 µM
14  CC1CCC2(C(=O)O)CCC3(C)C(=CCC4C5(C)CC(O)C(O)C(C)(CO)C5C(O)CC43C)C2C1C (configuration not stated)              TGI  > 57.6 µM
15       CC(C)(N=NC(C)(C)C(=O)NCCO)C(=O)NCCO              TGI   > 100 µM
16  O=C1CCC[C@@H]2NC[C@@H](c3ccc4c(c3)OCO4)[C@H]12              TGI    > 25 µM
17        O=C(CN1c2ccccc2Sc2ccccc21)N1CCNCC1              TGI   > 100 µM
18          NCC1CCN(c2nc3ccccc3c3c2CCCC3)CC1              TGI    7.92 µM
19  OC1C2[C@@H](O)CCCN2C[C@@H](O)[C@H]1O (some centres not stated)              TGI   > 100 µM
20              COc1ccccc1Nc1nc(N)nc(N)c1N=O              TGI   > 100 µM
21  O=c1nc(N2CCN(c3ccccc3)CC2)ccn1C1OC(CO)C(O)C1O (configuration not stated)              TGI   > 100 µM
